Reference for the values: ChEMBL document CHEMBL5360551

Examples of molecules with documented pEC50 follow.
assaySystem: Putative P2Y purinoceptor 10 (Mus musculus, UniProt Q8BFU7)
Sequence (Q8BFU7 whole entry): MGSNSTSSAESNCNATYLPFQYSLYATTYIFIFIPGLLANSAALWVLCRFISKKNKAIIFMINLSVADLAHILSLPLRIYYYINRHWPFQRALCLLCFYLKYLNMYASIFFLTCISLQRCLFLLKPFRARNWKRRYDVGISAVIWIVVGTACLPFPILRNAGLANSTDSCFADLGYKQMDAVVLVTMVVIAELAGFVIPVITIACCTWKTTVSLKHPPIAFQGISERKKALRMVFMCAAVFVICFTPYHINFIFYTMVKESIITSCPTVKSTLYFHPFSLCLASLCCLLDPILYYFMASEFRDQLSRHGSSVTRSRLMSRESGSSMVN
assayExplanation: Agonist activity at mouse LPS2/P2Y10 transfected in HEK293-A cells co-transfected with AP-TGFalpha assessed as AP-TGFalpha release by TGFalpha shedding assay
Format: functional, cell-based
conditions: read-out: EC50
pEC50: −log10 of the molar value.
experimentalReadout: pEC50

INSERT INTO measurements (itemsmiles, assayvalue) VALUES
  ('N[C@@H](COP(=O)(O)OCCCOC(=O)CCc1ccccc1Oc1ccc(-c2ccc(C34C[C@H]5C[C@@H](C3)C[C@@H](C4)C5)cc2)cc1)C(=O)O', 8.28),
  ('N[C@@H](COP(=O)(O)OCCCCCOC(=O)CC(=O)CC(=O)Cc1ccccc1Oc1ccc(-c2ccccc2)cc1)C(=O)O', 7.00),
  ('N[C@@H](COP(=O)(O)OCCCCOC(=O)CC(=O)Cc1ccccc1Oc1ccc(-c2ccccc2)cc1)C(=O)O', 6.85),
  ('N[C@@H](COP(=O)(O)OCCCOC(=O)CCc1ccccc1Oc1ccc(-c2cc(-c3ccccc3)cc(-c3ccccc3)c2)cc1)C(=O)O', 8.72);
